Assay: Cytotoxicity in differentiated SH-SY5Y cells, MTT
Format: cell-based
Details: human
Protocol: Neuroblastoma cells (SH-SY5Y) were maintained in humidified atmosphere at 37 °C with 5%CO2 in DMEM/F12 supplement with 10%FBS. Afterward, cells were treated for 6 days and replaced every 3 days with 1%FBS supplementation and 10 μM of retinoic acid. […] Cell viability was assessed using MTT assay. Absorbance at 570 nm was measured for both treated and untreated samples, with viability expressed as a percentage relative to the control.
MEASURE: viability at 1 µM (%)
# unit: % | format: bare number

Measured viability at 1 µM of COc1cc(OC)c2c(=O)cc(-c3ccccc3)oc2c1 : 104

* * *

experiment: DPPH radical scavenging; conditions: read-out: Antioxidant DPPH IC50
pIC50: −log10 of the molar value.
MEASURE: pIC50

// solved cases for pIC50 follow
>  <COMPOUND>
COc1ccc(-c2cc(=O)c3c(OC)cc(OC)cc3o2)cc1

>  <pIC50>
< 4.00

$$$$
>  <COMPOUND>
COc1cc(O)c2c(=O)c(OC)c(-c3ccccc3)oc2c1 [F4, 5-hydroxy-3,7-dimethoxyflavone]

>  <pIC50>
< 4.00

$$$$
>  <COMPOUND>
COc1cc(OC)c2c(=O)c(OC)c(-c3ccccc3)oc2c1

>  <pIC50>
< 4.00

$$$$
>  <COMPOUND>
COc1cc(OC)c2c(=O)cc(-c3ccccc3)oc2c1

>  <pIC50>
< 4.00

$$$$
>  <COMPOUND>
COc1ccc(-c2oc3cc(OC)cc(OC)c3c(=O)c2OC)cc1

>  <pIC50>
< 4.00

$$$$

Measured pIC50 of Cc1c(C)c2c(c(C)c1O)CCC(C)(C(=O)O)O2 (stereo not drawn) [Trolox, reference compound] : 4.61

* * *

molecular target: UniProt P06276; assay: biochemical; details: mean ± SD, n = 3; read-out: BChE inhibition IC50
Sequence (P06276 29-602, species assumed): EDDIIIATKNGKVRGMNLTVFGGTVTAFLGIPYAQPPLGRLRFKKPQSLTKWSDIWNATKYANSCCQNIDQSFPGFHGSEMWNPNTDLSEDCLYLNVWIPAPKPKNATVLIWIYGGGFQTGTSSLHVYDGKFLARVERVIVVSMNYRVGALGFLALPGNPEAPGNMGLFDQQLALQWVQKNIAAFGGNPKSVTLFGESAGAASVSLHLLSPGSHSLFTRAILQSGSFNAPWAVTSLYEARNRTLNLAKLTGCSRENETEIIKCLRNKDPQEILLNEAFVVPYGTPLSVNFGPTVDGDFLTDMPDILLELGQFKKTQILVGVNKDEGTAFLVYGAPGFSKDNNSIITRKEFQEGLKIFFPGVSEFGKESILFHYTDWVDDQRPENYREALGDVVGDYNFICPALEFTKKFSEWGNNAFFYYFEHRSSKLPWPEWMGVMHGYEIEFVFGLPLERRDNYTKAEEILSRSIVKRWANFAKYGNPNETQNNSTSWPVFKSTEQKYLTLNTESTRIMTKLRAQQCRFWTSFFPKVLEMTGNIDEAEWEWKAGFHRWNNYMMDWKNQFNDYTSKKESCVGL
IC50 values by entry
# unit: µM | format: bare number

// solved cases for IC50 follow
>  <MOLECULE>
COc1cc(OC)c2c(=O)c(OC)c(-c3ccccc3)oc2c1 [F2, 3,5,7-trimethoxyflavone]

>  <STUDY_TARGET>
UniProt P06276

>  <IC50 (µM)>
233

$$$$
>  <MOLECULE>
COc1ccc(-c2cc(=O)c3c(OC)cc(OC)cc3o2)cc1 [F3, 5,7,4′-trimethoxyflavone]

>  <STUDY_TARGET>
UniProt P06276

>  <IC50 (µM)>
152

$$$$
>  <MOLECULE>
COc1cc(O)c2c(=O)c(OC)c(-c3ccccc3)oc2c1 [F4, 5-hydroxy-3,7-dimethoxyflavone]

>  <STUDY_TARGET>
UniProt P06276

>  <IC50 (µM)>
33.5

$$$$
>  <MOLECULE>
COc1ccc(-c2oc3cc(OC)cc(OC)c3c(=O)c2OC)cc1 [F5, 3,5,7,4′-tetramethoxyflavone]

>  <STUDY_TARGET>
UniProt P06276

>  <IC50 (µM)>
164

$$$$

Next:
Measured IC50 of COc1cc(OC)c2c(=O)cc(-c3ccccc3)oc2c1 [F1, 5,7-dimethoxyflavone] : 92.2

* * *

experiment: Cytotoxicity in differentiated SH-SY5Y cells, MTT; assay type: cell-based; conditions: human, differentiated SH-SY5Y neuroblastoma cells; 10 µM, SH-SY5Y, MTT, average of 5; read-out: %Cell viability (cytotoxicity)
viability at 10 µM values by entry
# unit: % | format: bare number

Measured viability at 10 µM of COc1cc(O)c2c(=O)c(OC)c(-c3ccccc3)oc2c1 [F4, 5-hydroxy-3,7-dimethoxyflavone] : 103

Measured viability at 10 µM of COc1cc(OC)c2c(=O)c(OC)c(-c3ccccc3)oc2c1 : 102
